Cited source: ChEMBL document CHEMBL1135742

Exercise: for every item that follows, state its recorded ID/g.
Species on record: Mus musculus
Assay: Radioactivity uptake in the muscle was expressed as a percentage of the injected radioactive dose per gram of tissue (% ID/g) in B16/F1 Murine Melanoma-Bearing C57 Mice at 24 h
Assay type: functional, organism-based
The reply should be a number in %, with the unit left off.

In: What does the data say about its ID/g? Entry: DOTA-ReCCEHdFRWCKPVD-OH
Out: 0.082

In: What does the data say about its ID/g? Entry: DOTA-ReCCEHdFRWCRPV-NH2
Out: 0.14

In: What does the data say about its ID/g? Entry: DOTA-ReCCEHdFRWCKPV-NH2
Out: 0.031

In: What does the data say about its ID/g? Entry: Ac-Lys(DOTA)-ReCCEHdFRWCKPV-NH2
Out: 0.11

In: What does the data say about its ID/g? Entry: DOTA-ReCCEHdFRWCKPV-OH
Out: 0.14
